- Test system: Bacillus subtilis
- Experimental details: Antibacterial activity against Bacillus subtilis MTCC 121 after 24 hr by modified agar well diffusion assay
- Assay type: functional
- Condition: MTCC 121, 24 h
The following molecules are listed with their measured MIC values.
Experimental endpoint: MIC (µg/mL)

- COc1ccc(C2CC(c3ccc(F)cc3)=NN2c2ccc(S(N)(=O)=O)cc2)c(OC)c1 (centres undefined): 128
- COc1cccc(C2CC(c3ccc(F)cc3)=NN2c2ccc(S(N)(=O)=O)cc2)c1OC (centres undefined): 64
- COc1cc(OC)cc(C2CC(c3ccc(OC)cc3O)=NN2c2ccc(S(N)(=O)=O)cc2)c1 (centres undefined): 256
- COc1cc(OC)cc(C2CC(c3ccc(F)cc3)=NN2c2ccc(S(N)(=O)=O)cc2)c1 (centres undefined): 256
- COc1cccc(C2CC(c3ccc(Cl)cc3)=NN2c2ccc(S(N)(=O)=O)cc2)c1OC (centres undefined): 128
- COc1ccc(C2CC(c3ccc(F)cc3)=NN2c2ccc(S(N)(=O)=O)cc2)cc1OC (centres undefined): 128
- COc1ccc(C2=NN(c3ccc(S(N)(=O)=O)cc3)C(c3ccc(OC)cc3OC)C2)c(O)c1 (centres undefined): 64
- COc1ccc(OC)c(C2CC(c3ccc(F)cc3)=NN2c2ccc(S(N)(=O)=O)cc2)c1 (centres undefined): 128
- COc1ccc(C2CC(c3ccc(Cl)cc3)=NN2c2ccc(S(N)(=O)=O)cc2)c(OC)c1 (centres undefined): 64
- COc1ccc(C2=NN(c3ccc(S(N)(=O)=O)cc3)C(c3cccc(OC)c3OC)C2)c(O)c1 (centres undefined): 32
- COc1ccc(C2CC(c3ccc(Cl)cc3)=NN2c2ccc(S(N)(=O)=O)cc2)cc1OC (centres undefined): 128
- COc1ccc(OC)c(C2CC(c3ccc(Cl)cc3)=NN2c2ccc(S(N)(=O)=O)cc2)c1 (centres undefined): 64
- O=C(O)c1cn(C2CC2)c2cc(N3CCNCC3)c(F)cc2c1=O: 5

Data provenance is ChEMBL document CHEMBL3044986.
